System: PC-3
MEASUREMENT_PROTOCOL: Antimigratory activity against human PC3 cells at 10 uM after 12 to 48 hrs by wound-healing assay relative to control
Type: functional
Below, each entry is listed with its recorded inhibition at 10 µM.
# output: bare number, implied unit %

The following compounds have reported results that may help.
# STRUCTURE_SMILES, NUMERIC_RESULT
records = [
    ("C=C1CC[C@@H]2[C@](C)(CO)[C@H](O)CC[C@@]2(C)[C@@H]1/C=C/C1=CC(=C/c2ccc(F)cc2)/OC1=O", 34.3),
    ("C=C1CC[C@@H]2[C@](C)(CO)[C@H](O)CC[C@@]2(C)[C@@H]1/C=C/C1=CC(=C/c2ccc(Cl)cc2)/OC1=O", 58.5),
    ("C=C1CC[C@@H]2[C@](C)(CO)[C@H](O)CC[C@@]2(C)[C@@H]1/C=C/C1=CC(=C/c2ccc(Br)cc2)/OC1=O", 83.8),
]

Continue with the compound presented below.
Qu. Entry under review: C=C1CC[C@@H]2[C@](C)(CO)[C@H](O)CC[C@@]2(C)[C@@H]1/C=C/C1=CC(=C/c2ccc(OC)cc2)/OC1=O . Reported inhibition at 10 µM?
Ans. 34

Each recorded value in this set is attributed to ChEMBL document CHEMBL2440117.
